System: Acinetobacter baumannii ATCC17961
Test: Antimicrobial susceptibility testing: 90% growth inhibitory concentration (IC90) determination in Iso-Sensitest broth, OD600 growth
Type: cell-based
Conditions: Acinetobacter baumannii, ATCC17961, 16 h, strain ATCC 17961, OD600 growth over 16 h, read-out: A. baumannii ATCC 17961 IC90
Where a name gives a salt, the structure may show the parent alone.
Readings of IC90 for the listed compounds
Write the number in nM without appending the unit.

Exercise: Fill in: IC90 of O=C(CC1CNC1)N1CCN(C(=O)c2ccc(Nc3nccn4c(-c5c[nH]nc5C(F)(F)F)cnc34)cc2Cl)CC1 is ___
Solution: 322

Exercise: Entry CCc1cc(Nc2nccn3c(-c4c[nH]nc4C(F)(F)F)cnc23)ccc1C(=O)N1CCN(C(=O)C2CCNCC2)CC1 [Example 354, hydrochloride] : reported IC90 = ?
Solution: 918

Exercise: Any idea what its IC90 is? The compound is Cc1cc(Nc2nccn3c(-c4cn(CC#N)nc4C(F)(F)F)cnc23)ccc1C(=O)NCC(=O)N1CCC(N)CC1 [Example 503, formate]
Solution: 233

Exercise: Report IC90 for O=C(NC1CN(C(=O)[C@@H]2C[C@@H](O)CN2)C1)c1ccc(Nc2nccn3c(-c4c[nH]nc4C(F)(F)F)cnc23)cc1Cl please.
Solution: 309

***
Exercise: Which measured IC90 value corresponds to CCc1cc(Nc2nccn3c(-c4cn(CC(F)F)nc4C(F)(F)F)cnc23)ccc1C(=O)NCC(=O)N1CC[C@H](N)C1 ?
Solution: 409

Exercise: Which IC90 is listed for CCc1cc(Nc2nccn3c(-c4cn(CC(F)F)nc4C(F)(F)F)cnc23)ccc1C(=O)NCC(=O)N[C@@H]1CCNC1 ?
Solution: 246
